# test-target: 14-3-3ζ:BAD-112-136F interactions (Homo sapiens)
# Construct: expressed in transfected cells; host or cells: NIH-3T3 fibroblasts, bi-directional pBI-CMV1 plasmid
# assay-overview: BRET sensor screen for disruption of 14-3-3ζ-Rluc8:BAD-112-136F-mCitrine in living NIH-3T3 cells
# Format: cell-based, murine
# Parameters: unit not given here
# run-conditions: NIH-3T3 expressing BRET sensor; 20 µM, 3 h
Counter-ions that a name gives are not always drawn.
Answer each item with its documented BRET reduction on NIH-3T3.
Returns: the value as a bare number; no unit string appended.

stdin: Specify BRET reduction on NIH-3T3 for Cl.Cl.Fc1ccc(C(c2ccc(F)cc2)N2CCN(C/C=C/c3ccccc3)CC2)cc1 [Flunarizine 2HCl] , system 14-3-3ζ:BAD-112-136F interactions (Homo sapiens).
stdout: 36.4286

stdin: Find the measured BRET reduction on NIH-3T3 of Clc1ccc(COC(Cn2ccnc2)c2ccc(Cl)cc2Cl)c(Cl)c1 (stereo not shown) [Miconazole Nitrate] with 14-3-3ζ:BAD-112-136F interactions (Homo sapiens) as test system.
stdout: 52.8386

stdin: Specify the recorded BRET reduction on NIH-3T3 for CCCCc1oc2ccc(NS(C)(=O)=O)cc2c1C(=O)c1ccc(OCCCN(CCCC)CCCC)cc1 [Dronedarone HCl] , system: 14-3-3ζ:BAD-112-136F interactions (Homo sapiens).
stdout: 49.6356

stdin: Fill in BRET reduction on NIH-3T3 for CC/C(=C(\c1ccccc1)c1ccc(OCCN(C)C)cc1)c1ccccc1 tested with 14-3-3ζ:BAD-112-136F interactions (Homo sapiens).
stdout: 54.2923

stdin: Jot down BRET reduction on NIH-3T3 (14-3-3ζ:BAD-112-136F interactions (Homo sapiens)) of C[C@@H](NCCCc1cccc(C(F)(F)F)c1)c1cccc2ccccc12 [Cinacalcet HCl] .
stdout: 50.3473

stdin: Look up and report BRET reduction on NIH-3T3, with 14-3-3ζ:BAD-112-136F interactions (Homo sapiens) as system, for COC(=O)[C@]12CCC(C)(C)C[C@H]1[C@H]1C(=O)C=C3[C@@]4(C)C=C(C#N)C(=O)C(C)(C)[C@@H]4CC[C@@]3(C)[C@]1(C)CC2
stdout: 39.4225

stdin: Give BRET reduction on NIH-3T3 only, for CO[C@H]1C[C@H](O[C@H]2[C@H](C)O[C@@H](O[C@@H]3/C(C)=C/C[C@@H]4C[C@@H](C[C@]5(C=C[C@H](C)[C@@H](C6CCCCC6)O5)O4)OC(=O)[C@@H]4C=C(C)[C@@H](O)[C@H]5OC/C(=C\C=C\[C@@H]3C)[C@]54O)C[C@@H]2OC)O[C@@H](C)[C@@H]1O , using 14-3-3ζ:BAD-112-136F interactions (Homo sapiens) data.
stdout: 36.2699

---

# test-target: 14-3-3ζ:BAD-112-136F interactions (Homo sapiens)
# Construct: expressed in transfected cells; host or cells: NIH-3T3 fibroblasts, bi-directional pBI-CMV1 plasmid
# Sequence (P63104 1-245): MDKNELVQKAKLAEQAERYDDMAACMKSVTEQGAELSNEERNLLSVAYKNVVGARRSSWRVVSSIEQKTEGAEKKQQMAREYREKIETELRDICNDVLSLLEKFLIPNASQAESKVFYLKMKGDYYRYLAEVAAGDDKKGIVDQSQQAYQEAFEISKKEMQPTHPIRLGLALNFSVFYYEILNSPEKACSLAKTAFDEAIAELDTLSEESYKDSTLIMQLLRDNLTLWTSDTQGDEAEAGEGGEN
# assay-overview: BRET sensor screen for disruption of 14-3-3ζ-Rluc8:BAD-112-136F-mCitrine in living NIH-3T3 cells
# Type: cell-based, murine
# run-conditions: NIH3T3, 3 h, NIH-3T3 expressing BRET sensor; 20 µM, 3 h; read-out: BRET reduction on NIH-3T3
Where a name gives a salt, the structure may show the parent alone.
Range-based classes on measured inhibition at 20 µM: range A (below 30%), range B (30% to below 40%), range C (40% or more)

stdin: Class (by measured inhibition at 20 µM) for OC(CNCC(O)C1CCc2cc(F)ccc2O1)C1CCc2cc(F)ccc2O1 (centres unmarked)
stdout: range B

stdin: Which category fits this record: CO/N=C1\C[C@]2(C[C@@H]3C[C@@H](C/C=C(\C)C[C@@H](C)/C=C/C=C4\CO[C@@H]5[C@H](O)C(C)=C[C@@H](C(=O)O3)[C@]45O)O2)O[C@H](/C(C)=C/C(C)C)[C@H]1C
stdout: range C

stdin: Into which category would you place Cc1cc(Nc2cc(CN3CCOCC3)c3nc(C)c(Cc4ccc(Cl)cc4F)n3n2)n[nH]1 ?
stdout: range B

stdin: Place this compound in its band: CC/C(=C(/CC)c1ccc(O)cc1)c1ccc(O)cc1
stdout: range A

stdin: Looking at COc1ccc2c(O[C@@H]3C[C@H]4C(=O)N[C@]5(C(=O)NS(=O)(=O)C6CC6)C[C@H]5/C=C\CCCCN(C)C(=O)[C@@H]4C3)cc(-c3nc(C(C)C)cs3)nc2c1C , which class would you pick?
stdout: range C

stdin: Using the reported inhibition at 20 µM, which band applies to CCOC(=O)N1CCC(=C2c3ccc(Cl)cc3CCc3cccnc32)CC1 ?
stdout: range A

stdin: // return the class label for CC/C(=C(\c1ccccc1)c1ccc(OCCN(C)C)cc1)c1ccccc1 [Tamoxifen Citrate]
stdout: range C

stdin: Which class does C[C@@H](NCCCc1cccc(C(F)(F)F)c1)c1cccc2ccccc12 fall in?
stdout: range C

stdin: Sort CCCSc1nc(N[C@@H]2C[C@H]2c2ccc(F)c(F)c2)c2nnn([C@@H]3C[C@H](OCCO)[C@@H](O)[C@H]3O)c2n1 into one of the categories.
stdout: range A

stdin: Bin? CN(C(=O)CN(CCO)CC(=O)N(C)C(C)(C)Cc1ccccc1)C(C)(C)Cc1ccccc1
stdout: range A

stdin: For this compound, which bin applies? C=CCc1ccc(O)c(-c2ccc(O)c(CC=C)c2)c1
stdout: range B

stdin: Band for CCCCCCCCCCCC[N+](C)(C)CCOc1ccccc1 [Domiphen Bromide] ?
stdout: range C

stdin: Place this compound in its band: C=C[C@@H]1C[C@]1(NC(=O)[C@@H]1C[C@@H](Oc2ncc(OC)c3ccc(Cl)cc23)CN1C(=O)[C@@H](NC(=O)OC(C)(C)C)C(C)(C)C)C(=O)NS(=O)(=O)C1CC1
stdout: range C

stdin: Determine which band this compound sits in: CC(C)(C)C#Cc1cc(N(C(=O)[C@H]2CC[C@H](C)CC2)[C@H]2CC[C@H](O)CC2)c(C(=O)O)s1
stdout: range C

---

# test-target: 14-3-3ζ:BAD-112-136F interactions (Homo sapiens)
# Construct: expressed in transfected cells; host or cells: NIH-3T3 fibroblasts, bi-directional pBI-CMV1 plasmid
# assay-overview: BRET sensor screen for disruption of 14-3-3ζ-Rluc8:BAD-112-136F-mCitrine in living NIH-3T3 cells
# Format: cell-based, murine
# run-conditions: NIH3T3, 3 h, NIH-3T3 expressing BRET sensor; 20 µM, 3 h; read-out: BRET reduction on NIH-3T3
# Procedure: The Z’-score, which evaluates the robustness of an HTS assay readout, was calculated according to standard protocols. For the HTS, 384-well plates were coated with 100 μg/mL poly-L-ornithine (Sigma, Missouri, United States; #P3655) overnight at 37 °C, followed by rinsing with sterilized water. NIH-3T3 cells were transfected with the BRET sensor two days prior to experimentation, followed by replating onto the pre-coated 384-well plates at a density of 20,000 cells/well. […]
Would you mind labelling by inhibition at 20 µM? At or over 30% is Met, under is Not met.

stdin: Please indicate if the recorded inhibition at 20 µM for C=C[C@@H]1C[C@]1(NC(=O)[C@@H]1C[C@@H]2CN1C(=O)[C@H](C(C)(C)C)NC(=O)O[C@@H]1C[C@H]1CCCCCc1nc3ccc(OC)cc3nc1O2)C(=O)NS(=O)(=O)C1CC1 [MK-5172] meets or exceeds 30%.
stdout: Met

stdin: Quick check: does Clc1ccc(C(c2ccccc2Cl)C(Cl)Cl)cc1 (stereo not drawn) [Mitotane (Lsodren), Mitotane] have inhibition at 20 µM greater than or equal to 30%?
stdout: Not met

stdin: Textbook exercise: given the entry Clc1ccc(C(Cn2ccnc2)OCc2ccsc2Cl)c(Cl)c1 (stereo not drawn) [Tioconazole] , state whether its inhibition at 20 µM is greater than or equal to 30%.
stdout: Not met

stdin: Is inhibition at 20 µM for CCc1c(Cl)c(O)c(Cl)c(O)c1C(=O)O[C@H]1[C@H](O)[C@H](OC)[C@H](OC/C2=C\C=C\C[C@H](O)/C(C)=C/[C@H](CC)[C@@H](O[C@@H]3OC(C)(C)[C@@H](OC(=O)C(C)C)[C@H](O)[C@@H]3O)/C(C)=C/C(C)=C/C[C@@H]([C@@H](C)O)OC2=O)O[C@@H]1C [Fidaxomicin] at or above 30%?
stdout: Met

stdin: Does CC[C@H](c1ccc(O)cc1)[C@@H](CC)c1ccc(O)cc1 [Hexestrol] have a reported inhibition at 20 µM of at least 30%?
stdout: Met

stdin: Is it the case that CCN1CCN(c2cc(-c3ccc(F)cc3)c3c(n2)CCCCCC3)CC1 [Blonanserin] has inhibition at 20 µM reaching or exceeding 30%?
stdout: Not met

The reported numbers originate from paper PMC12603070.
